- TARGET_OR_SYSTEM: human α7 nAChR (Homo sapiens, UniProt P36544)
- Construct: host or cells: HEK
- Sequence (P36544 23-502): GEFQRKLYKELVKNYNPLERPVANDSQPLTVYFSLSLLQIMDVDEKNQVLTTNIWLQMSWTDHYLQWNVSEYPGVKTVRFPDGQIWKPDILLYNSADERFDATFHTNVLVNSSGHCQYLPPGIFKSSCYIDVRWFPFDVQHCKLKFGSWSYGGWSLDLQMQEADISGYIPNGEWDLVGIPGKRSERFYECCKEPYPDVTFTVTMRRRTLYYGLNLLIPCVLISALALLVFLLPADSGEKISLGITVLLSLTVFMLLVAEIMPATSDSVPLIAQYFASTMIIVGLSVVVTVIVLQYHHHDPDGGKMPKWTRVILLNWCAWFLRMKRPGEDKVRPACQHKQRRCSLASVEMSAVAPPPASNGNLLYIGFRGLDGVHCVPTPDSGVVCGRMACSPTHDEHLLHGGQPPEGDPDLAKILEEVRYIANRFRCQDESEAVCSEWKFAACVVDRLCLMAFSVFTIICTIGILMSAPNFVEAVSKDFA
- EXPERIMENTAL_PROTOCOL: Automated patch-clamp electrophysiology functional assay (Assay A)
- Assay type: cell-based
- MEASUREMENT_SETUP: HEK cell line stably expressing human RIC-3 and human α7; IonFlux HT whole-cell population patch; with or without 40 μM acetylcholine; read-out: α7 nAChR EC50
ENDPOINT_LABEL: EC50

NS(=O)(=O)N1CCC2(CC1)C(COc1cccnc1OCC(F)(F)F)C2(F)F (single isomer, unassigned) [Example A36]: 1200 nM
NS(=O)(=O)N1CCC2(CC1)CC2COc1cc(F)ccc1C(F)(F)F (single isomer, unassigned): 470 nM
NS(=O)(=O)N1CCC2(CC1)CC2CSc1ccc(C(F)(F)F)cc1 (racemic): 1400 nM
NS(=O)(=O)N1CCC2(CC1)C[C@H]2COc1cccc(NCC(F)(F)F)n1: 74 nM

Request: I would be grateful if you could share the reported EC50 for COc1ccc(F)c(OCC2CC23CCN(S(N)(=O)=O)CC3)c1 (racemic) .
Result: 650 nM

Request: I would be grateful if you could share the reported EC50 for NS(=O)(=O)N1CCC2(CC1)C(COc1cccc(OCC(F)(F)F)c1)C2(F)F (single isomer, unassigned) .
Result: 58 nM

Request: I would be grateful if you could share the reported EC50 for NS(=O)(=O)N1CCC2(CC1)CC2COc1ccnc(OCC(F)(F)F)c1 (racemic) .
Result: 140 nM

* * *

Form field: pEC50 (one value per entry).
- TARGET_OR_SYSTEM: human α7 nAChR (Homo sapiens)
- Construct: host or cells: HEK
- EXPERIMENTAL_PROTOCOL: Automated patch-clamp electrophysiology functional assay (Assay A)
- Format: cell-based
- MEASUREMENT_SETUP: HEK cell line stably expressing human RIC-3 and human α7; IonFlux HT whole-cell population patch; with or without 40 μM acetylcholine; read-out: α7 nAChR Potency
pEC50: −log10 of the molar value.

Worked set:
COc1cc(F)ccc1OC[C@@H]1CC12CCN(S(N)(=O)=O)CC2: 5.30 to 6.30
CC(F)(F)c1cccc(OC[C@@H]2CC23CCN(S(N)(=O)=O)CC3)n1: 5.30 to 6.30
NS(=O)(=O)N1CCC2(CC2COc2noc(-c3ccccc3)n2)C(F)(F)C1 (racemic): 5.30 to 6.30
CC(C)(O)c1cccc(OC[C@@H]2CC23CCN(S(N)(=O)=O)CC3)n1: 6.30 to 7.00
CC(C)c1cccc(OC[C@@H]2CC23CCN(S(N)(=O)=O)CC3)n1: 5.30 to 6.30

Request: I would be grateful if you could share the reported pEC50 for NS(=O)(=O)N1CCC2(CC1)C(COc1cccnc1OCC(F)(F)F)C2(F)F (single isomer, unassigned) [Example A35] .
Result: 5.30 to 6.30

Request: I would be grateful if you could share the reported pEC50 for COc1ccc(F)c(OCC2C(F)(F)C23CCN(S(N)(=O)=O)CC3)c1 (single isomer, unassigned) .
Result: ≥ 7.00

Request: I would be grateful if you could share the reported pEC50 for NS(=O)(=O)N1CCC2(CC1)C(CSc1ccc(C(F)(F)F)cc1)C2(F)F (single isomer, unassigned) .
Result: 6.30 to 7.00

Request: I would be grateful if you could share the reported pEC50 for COc1ccc(Cl)cc1OCC1CC12CCN(S(N)(=O)=O)CC2 (racemic) .
Result: 6.30 to 7.00
